Target: Glycogen synthase kinase-3 beta (Homo sapiens, UniProt P49841)
Sequence (P49841 whole entry): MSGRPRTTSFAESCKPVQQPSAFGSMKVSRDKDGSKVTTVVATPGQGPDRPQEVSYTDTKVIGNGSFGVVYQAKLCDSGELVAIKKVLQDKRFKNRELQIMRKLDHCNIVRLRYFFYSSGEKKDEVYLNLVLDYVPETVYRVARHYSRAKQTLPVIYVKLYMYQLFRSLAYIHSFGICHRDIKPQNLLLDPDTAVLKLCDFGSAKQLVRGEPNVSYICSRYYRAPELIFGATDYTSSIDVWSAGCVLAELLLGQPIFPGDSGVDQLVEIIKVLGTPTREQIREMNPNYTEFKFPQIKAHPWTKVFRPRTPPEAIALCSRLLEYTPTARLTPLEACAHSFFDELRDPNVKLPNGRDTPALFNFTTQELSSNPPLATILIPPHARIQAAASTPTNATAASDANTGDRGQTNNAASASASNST
Experiment: Inhibition of human recombinant GSK3-beta using gamma[33P]-ATP after 30 mins by scintillation proximity assay
pIC50: −log10 of the molar value.
Measured pIC50, listed per entry for reference.
ASSAY_ENDPOINT: pIC50

> print(dat)
                                 smiles.code  assay.endpoint  test.value
 1  CCCC(=O)Nc1n[nH]c2cc(-c3cc(F)cc(F)c3)ccc12           pIC50        5.54
 2   CCCC(=O)Nc1n[nH]c2cc(-c3ccc(N)cc3)ccc12           pIC50        7.12
 3  CCCC(=O)Nc1n[nH]c2cc(Cl)c(-c3ccc(C)cc3)cc12           pIC50        7.85
 4  CCCC(=O)Nc1n[nH]c2cc(Cl)c(-c3ccc(N)cc3)cc12           pIC50        8.10
 5      CCCC(=O)Nc1n[nH]c2cc(-c3ccncc3)ccc12           pIC50        6.18
 6  CCCC(=O)Nc1n[nH]c2cc(-c3ccc(O)cc3)c(-c3ccco3)cc12           pIC50        7.85
 7  CCCC(=O)Nc1n[nH]c2cc(-c3ccc(O)cc3Cl)ccc12           pIC50        7.26
 8   CCCC(=O)Nc1n[nH]c2cc(-c3ccc(O)nc3)ccc12           pIC50        4.78
 9  CCCC(=O)Nc1n[nH]c2cc(-c3ccc(O)cc3)c(Br)cc12           pIC50        8.30
10        O=C(O)CCC(=O)Nc1n[nH]c2cc(Cl)ccc12           pIC50        5.93
11       CCCC(=O)Nc1n[nH]c2cc(C(F)(F)F)ccc12           pIC50        6.71
